Recorded viability for the following molecules
Assay: endothelial cell growth inhibition – HUVEC, 384-well, primary screen (AID 648);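 further: 100% = median luminescence of DMSO-only cell control wells on each plate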
Details: HUVEC proliferation, CellTiter-Glo luminescence, 72 h; active compounds read low; screened at 10 µM (by protocol)
In all, about 86,000 compounds went through this assay and about 920 (1.1%) were called active. The list comes from a sample in which actives are over-represented; it also holds close analogues and randomly drawn compounds.
Give just the numeric value; % need not be written.

Input: What does the record list as viability for CCOC(=O)c1nnn(-c2nonc2-n2cccc2)c1CN1CCOCC1 ?
Output: 100

----------
Assay: endothelial cell growth inhibition – HUVEC, 384-well, primary screen (AID 648);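 further: 100% = median luminescence of DMSO-only cell control wells on each plate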
Conditions: HUVEC proliferation, CellTiter-Glo luminescence, 72 h; screened at 10 µM (by protocol)
Among all 86,000 compounds or so, about 920 (1.1%) were called active.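 The calls were made as follows: active = viability at or below 30%; inactive = viability above 30%.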 What follows is part of a selection rich in actives, with near analogues and random picks from the rest.
Permitted responses: active, inactive

Examples with answers:
[
  {
    "Molecule": "C/C(=N\\NC(=O)c1nc(C)cc(C)n1)c1ccccc1",
    "Assigned Class": "inactive"
  },
  {
    "Molecule": "Cc1ccc(OCC(=O)N/N=C\\c2ccco2)c(C)c1",
    "Assigned Class": "inactive"
  }
]

Input: For this molecule, state the assay outcome: Cc1ccc(CNC(=O)C2CCCN2C(=O)NCc2ccccc2)cc1 (stereo unspecified)
Output: inactive

Input: Dear all, I need the recorded test outcome for Fc1ccccc1/C=C1\CCCC2=C1Nc1ncnn1C2c1ccccc1F (stereo unspecified) , thank you.
Output: active
